Target: Human LATS2 catalytic domain (Homo sapiens (Human))
Sequence (Q9NRM7 553-1088): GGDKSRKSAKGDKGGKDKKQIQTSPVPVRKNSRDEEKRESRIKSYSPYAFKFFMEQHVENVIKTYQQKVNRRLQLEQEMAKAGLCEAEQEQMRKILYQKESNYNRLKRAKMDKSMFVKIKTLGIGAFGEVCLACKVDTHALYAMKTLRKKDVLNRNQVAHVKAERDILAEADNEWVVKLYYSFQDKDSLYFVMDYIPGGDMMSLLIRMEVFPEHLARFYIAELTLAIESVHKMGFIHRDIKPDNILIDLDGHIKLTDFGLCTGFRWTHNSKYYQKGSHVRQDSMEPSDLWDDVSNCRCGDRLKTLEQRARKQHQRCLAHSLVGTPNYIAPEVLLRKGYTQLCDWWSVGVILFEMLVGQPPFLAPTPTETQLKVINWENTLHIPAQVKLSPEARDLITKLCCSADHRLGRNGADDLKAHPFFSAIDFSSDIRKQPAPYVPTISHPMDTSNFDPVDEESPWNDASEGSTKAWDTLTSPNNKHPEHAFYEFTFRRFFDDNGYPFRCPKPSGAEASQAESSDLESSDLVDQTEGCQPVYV
Sequence (Q7L9L4 whole entry partner, the tested form may be a part): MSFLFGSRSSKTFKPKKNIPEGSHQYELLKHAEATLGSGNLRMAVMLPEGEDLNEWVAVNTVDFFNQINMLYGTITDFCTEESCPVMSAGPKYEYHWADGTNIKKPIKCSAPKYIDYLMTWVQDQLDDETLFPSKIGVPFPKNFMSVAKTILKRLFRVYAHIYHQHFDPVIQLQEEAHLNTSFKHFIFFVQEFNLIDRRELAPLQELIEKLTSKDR
Assay: LATS2 High ATP HTRF Assay
Format: biochemical
Conditions: no asterisk: LATS2 High ATP HTRF Assay, 5000 μM ATP, 0.05 nM LATS2
Experimental: Human LATS2 catalytic domain which contains the amino acids G553-V1088 (accession NP_055387) was purified in-house. The LATS2 catalytic domain was co-purified with Mob1b (accession NP_775739). […] The HTRF (665 nm/620 nm) signal was read on the Envision plater reader (PerkinElmer). The IC50 values were determined by fitting the % inhibition with a nonlinear four-parameter logistical equation. […]
MEASUREMENT_LABEL: pKi
As a rule, pKi stands for the negative log10 of the concentration, concentration in M.

Reference set, count: 5
COCCN1CCC2(CCN(c3nc(-c4ccncc4)nc4cnccc34)CC2)C1 [Compound 121]; 9.10
O[C@@H]1CC[C@H](N2CCC3(CCN(c4nc(-c5ccncc5)nc5cnccc45)CC3)C2)C1 (single isomer, unassigned) [Compound 170]; 9.54
OC[C@H]1CC2(CCN(c3nc(-c4ccncc4)nc4cnccc34)CC2)CN1 (single isomer, unassigned) [Compound 198]; 10.39
NS(=O)(=O)CCN1CCC2(CCN(c3nc(-c4ccncc4)nc4cnccc34)CC2)C1 [Compound 109]; 10.37
FC(F)c1[nH]ncc1-c1nc(N2CCC3(CCNC3)CC2)c2ccncc2n1 [Example 213]; 9.22

For the molecule O[C@H]1CCC[C@@H]1N1CCC2(CCN(c3nc(-c4ccncc4)nc4cnccc34)CC2)C1 (single isomer, unassigned) [Compound 129] , what pKi is on record? 10.12

Tell me the measured pKi of Cc1n[nH]cc1-c1nc(N2CCC3(CC2)CCN(C2CCOC2)C3)c2ccncc2n1 (stereo not shown) [Compound 148] , please. 9.92

The origin of these recorded values is patent US20240174696A1.
